- Target Desc: Phosphoribosylglycinamide formyltransferase (Escherichia coli (strain K12), UniProt P08179)
- Sequence (P08179 whole entry): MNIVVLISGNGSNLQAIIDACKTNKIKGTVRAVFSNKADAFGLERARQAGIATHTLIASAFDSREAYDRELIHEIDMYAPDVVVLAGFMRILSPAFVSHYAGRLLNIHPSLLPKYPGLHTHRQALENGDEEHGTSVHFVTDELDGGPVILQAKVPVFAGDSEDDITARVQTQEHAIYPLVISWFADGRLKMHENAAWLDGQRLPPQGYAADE
- Assay Protocol: GAR Tfase Activity Assay
- Condition Label: pH 7.5; 26 °C
In this section, each of the compounds is paired with its reported Ki.

Some compounds with known Ki results, for comparison:
{"columns": ["Compound", "Ki"],
 "data": [
  ["O=C1NS(=O)(=O)Nc2c1ncn2[C@@H]1O[C@H](CO)[C@@H](O)[C@H]1O", "> 100 µM"],
  ["Nc1nc2c(c(=O)[nH]1)C[C@@H](CCc1ccc(C(=O)N[C@@H](CCC(=O)O)C(=O)O)cc1)CN2 [5,10-dideazatetrahydrofolic acid]", "0.1 µM"],
  ["O=C1NS(=O)(=O)Nc2nc[nH]c21", "> 100 µM"]
]}

What Ki value was documented for this compound, `O=C1NS(=O)(=O)Nc2c1ncn2[C@@H]1O[C@H](COP(=O)(O)O)[C@@H](O)[C@H]1O` ? > 100 µM
